Assay: Blood stability studies in freshly collected rat blood
Format: in vitro ADME
Set-up: unit not given here
Procedure: Blood stability studies: Compounds were incubated at 37° C. in freshly collected rat blood. At selected time points, duplicate aliquots of the whole blood were sampled, centrifuged and the plasma assayed for parent compound by LC-MS.
Please respond with reported Stability in Rat Blood (t1/2) at 37° C. for every item in the list.
Answers are plain numbers.

Query :: Look up Stability in Rat Blood (t1/2) at 37° C. of CS(=O)(=O)O.c1cc([C@H]2CC[C@]3(CC2)OOC2(O3)C3CC4CC(C3)CC2C4)ccc1OC1CCNCC1 (some centres unmarked) and report it.
Result :: 5.5

Query :: Dear colleague, please send me the reported Stability in Rat Blood (t1/2) at 37° C. for CC(C)(CN)Oc1ccc(C2CCC3(CC2)OOC2(O3)C3CC4CC(C3)CC2C4)cc1.CS(=O)(=O)O (centres unmarked) when you can.
Result :: 6.1

Query :: Annotate the compound CC(C)(N)CNC(=O)C[C@H]1CC[C@]2(CC1)OO[C@]1(O2)C2CC3CC(C2)CC1C3 [OZ277, reference compound] with its measured Stability in Rat Blood (t1/2) at 37° C..
Result :: 0.8

Value sought for every listed compound: Stability in Rat Blood (t1/2) at 37° C..
1. NCCOc1ccc([C@H]2CC[C@]3(CC2)OO[C@]2(O3)C3CC4CC(C3)CC2C4)cc1 [OZ323, reference compound]
2. NC[C@H]1CC[C@]2(CC1)OOC1(O2)C2CC3CC(C2)CC1C3 (some centres unmarked) [OZ209, reference compound]

Result ::
[7.7, 0.8]

* * *

Give measured Cures 24 h prior to infection (30 mg/kg) for each item. Keep answers brief.
Test system: P. berghei
Assay: Prophylactic activity against P. berghei in vivo (mice dosed before infection)
Details: single 30 mg/kg oral dose 24 h prior to infection; n=5 mice

Query :: Output Cures 24 h prior to infection (30 mg/kg) of C[C@H]1[C@H](OC(=O)CCC(=O)O)O[C@@H]2O[C@@]3(C)CC[C@H]4[C@H](C)CC[C@@H]1[C@@]24OO3 [AS, artesunate, reference compound]
Result :: 0/5

Query :: Supply measured Cures 24 h prior to infection (30 mg/kg) of NCCOc1ccc([C@H]2CC[C@]3(CC2)OO[C@]2(O3)C3CC4CC(C3)CC2C4)cc1 [OZ323, reference compound] in your reply.
Result :: 0/5

For every record below, what is its Cures 24 h prior to infection (30 mg/kg)?
1. CC(C)(O)CNCCCOc1ccc([C@H]2CC[C@]3(CC2)OOC2(O3)C3CC4CC(C3)CC2C4)cc1.Cc1ccc(S(=O)(=O)O)cc1 (stereo partly shown) [OZ505]
2. CS(=O)(=O)N1CCN(CCOc2ccc([C@H]3CC[C@]4(CC3)OOC3(O4)C4CC5CC(C4)CC3C5)cc2)CC1.CS(=O)(=O)O (stereo partly shown) [OZ485]
3. OC(c1cc(C(F)(F)F)nc2c(C(F)(F)F)cccc12)C1CCCCN1 (stereo not shown) [MQ, mefloquine, reference compound]
4. CS(=O)(=O)O.c1cc(C2CCC3(CC2)OOC2(O3)C3CC4CC(C3)CC2C4)ccc1OCCN1CCOCC1 (stereo not shown) [OZ439]
5. O=C1CCC([C@H]2CC[C@]3(CC2)OOC2(O3)C3CC4CC(C3)CC2C4)CC1 (stereo partly shown) [OZ495]

Result ::
2/5
3/5
3/5
5/5
1/5
